Values were extracted from ChEMBL document CHEMBL4825673.

- System: Acinetobacter baumannii
- protocol-description: Antibacterial activity against Acinetobacter baumannii assessed as inhibition of bacterial growth incubated for 24 hrs by broth microdilution method
- Type: functional
- study-conditions: read-out: MIC100
quantity: MIC (µg/mL)
Number in µg/mL, nothing else.

>>> observed_measurement("CC[C@H](C)CCCCC(=O)N[C@@H](CCN)C(=O)N[C@H](C(=O)N[C@@H](CCN)C(=O)N[C@H]1CCNC(=O)[C@H]([C@@H](C)O)NC(=O)[C@H](CCN)NC(=O)[C@H](CCN)NC(=O)[C@H](CC(C)C)NC(=O)[C@@H](Cc2ccccc2)NC(=O)[C@H](CCN)NC1=O)[C@@H](C)OC(=O)[C@@H](N)CC(=O)O")
0.125

Turning now to a further record.
I am curious: what MIC value has been reported for CCCCCCCC(=O)N[C@@H](CCN)C(=O)N[C@H](C(=O)N[C@@H](CCN)C(=O)N[C@H]1CCNC(=O)[C@H](CS)NC(=O)[C@H](CCN)NC(=O)[C@H](CCN)NC(=O)[C@H](CC(C)C)NC(=O)[C@@H](Cc2ccccc2)NC(=O)[C@H](CCN)NC1=O)[C@@H](C)O ? 0.25

----------
- Test system: Acinetobacter baumannii
- protocol-description: Antibacterial activity against Acinetobacter baumannii assessed as inhibition of bacterial growth incubated for 24 hrs by broth microdilution method
- Format: functional
- study-conditions: read-out: MIC100
Parameter MIC: see the listing below.
Number in µg/mL, nothing else.

>>> observed_measurement("CC[C@H](C)CCCCC(=O)N[C@@H](CCN)C(=O)N[C@H](C(=O)N[C@@H](CCN)C(=O)N[C@H]1CCNC(=O)[C@H]([C@@H](C)O)NC(=O)[C@H](CCN)NC(=O)[C@H](CCN)NC(=O)[C@H](CC(C)C)NC(=O)[C@@H](Cc2ccccc2)NC(=O)[C@H](CCN)NC1=O)[C@@H](C)OC(=O)[C@@H](N)Cc1ccc(O)cc1")
0.03

I am curious: what MIC value has been reported for CC[C@H](C)CCCCC(=O)N[C@@H](CCN)C(=O)N[C@H](C(=O)N[C@@H](CCN)C(=O)N[C@H]1CCNC(=O)[C@H]([C@@H](C)O)NC(=O)[C@H](CCN)NC(=O)[C@H](CCN)NC(=O)[C@H](CC(C)C)NC(=O)[C@@H](Cc2ccccc2)NC(=O)[C@H](CCN)NC1=O)[C@@H](C)OC(=O)[C@@H](N)CCC(N)=O ? 0.06

Check CC(C)CCCCC(=O)N[C@@H](CCN)C(=O)N[C@H](C(=O)N[C@@H](CCN)C(=O)N[C@H]1CCNC(=O)[C@H]([C@@H](C)O)NC(=O)[C@H](CCN)NC(=O)[C@H](CCN)NC(=O)[C@H](CC(C)C)NC(=O)[C@@H](Cc2ccccc2)NC(=O)[C@H](CCN)NC1=O)[C@@H](C)OC(=O)[C@H](C)N too. 0.125

----------
- Test system: Acinetobacter baumannii
- protocol-description: Antibacterial activity against Acinetobacter baumannii assessed as inhibition of bacterial growth incubated for 24 hrs by broth microdilution method
- Assay type: functional
- study-conditions: read-out: MIC100
Positions of bridges follow the written chain, without caps; N, C: chain ends. Non-standard residues stand in square brackets, D forms with d. Residues, ends and D or L forms follow the SMILES beside them. *: point of attachment. Benzoyl(4-Ph) = O=C(c1ccc(-c2ccccc2)cc1)*; Dab = NCC[C@H](N)C(=O)O
Parameter MIC: see the listing below.

>>> observed_measurement("CC(C)C[C@@H]1NC(=O)[C@@H](Cc2ccccc2)NC(=O)[C@H](CCN)NC(=O)[C@@H](NC(=O)[C@H](CCN)NC(=O)[C@@H](NC(=O)[C@H](CCN)NC(=O)c2ccc(-c3ccccc3)cc2)[C@@H](C)O)CCNC(=O)[C@H]([C@@H](C)O)NC(=O)[C@H](CCN)NC(=O)[C@H](CCN)NC1=O ({Benzoyl(4-Ph)}-[Dab]T[Dab][Dab][Dab][dF]L[Dab][Dab]T; lactam 4-C)")
"0.06 µg/mL"

I am curious: what MIC value has been reported for CCCCCCCC(=O)N[C@@H](CCN)C(=O)N[C@H](C(=O)N[C@@H](CCN)C(=O)N[C@H]1CCNC(=O)[C@H](Cc2ccccc2)NC(=O)[C@H](CCN)NC(=O)[C@H](CCN)NC(=O)[C@H](CC(C)C)NC(=O)[C@@H](Cc2ccccc2)NC(=O)[C@H](CCN)NC1=O)[C@@H](C)O ? 0.06 µg/mL

Check CSCC[C@H](N)C(=O)O[C@H](C)[C@H](NC(=O)[C@H](CCN)NC(=O)CCCCC(C)C)C(=O)N[C@@H](CCN)C(=O)N[C@H]1CCNC(=O)[C@H]([C@@H](C)O)NC(=O)[C@H](CCN)NC(=O)[C@H](CCN)NC(=O)[C@H](CC(C)C)NC(=O)[C@@H](Cc2ccccc2)NC(=O)[C@H](CCN)NC1=O too. 0.125 µg/mL
